Target: T1, Dimeric human CD48-mFc (human)
T1 chain: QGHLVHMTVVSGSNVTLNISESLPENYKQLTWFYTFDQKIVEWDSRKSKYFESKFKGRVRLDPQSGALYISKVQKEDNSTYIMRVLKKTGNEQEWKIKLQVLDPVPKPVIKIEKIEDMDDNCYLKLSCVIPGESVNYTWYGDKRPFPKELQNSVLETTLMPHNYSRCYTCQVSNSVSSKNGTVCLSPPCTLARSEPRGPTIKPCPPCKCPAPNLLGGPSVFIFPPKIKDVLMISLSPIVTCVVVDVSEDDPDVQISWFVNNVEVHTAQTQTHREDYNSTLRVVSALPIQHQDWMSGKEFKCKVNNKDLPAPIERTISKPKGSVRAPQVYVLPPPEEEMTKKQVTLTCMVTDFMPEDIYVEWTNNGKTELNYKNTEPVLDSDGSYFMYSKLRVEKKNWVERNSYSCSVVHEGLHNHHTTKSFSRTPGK
Experiment: SPR (Biacore T100), 25 C, antibody captured by anti-Fc, dimeric CD48-mFc in solution
pKd: −log10 of the molar value.
value.kind: pKd

1) H4H1772P (antibody, human IgG4, V domains shown, Human IgG4 Fc (prefix H4H)) VH: EVQLVESGGGLVQPGGSLRLSCAASGFTFSSYWMSWVRQAPGKGLEWVANIMRDGSEKYYVDSVKGRFTISRDNAKNSLYLQMNSLRGEDTAVYYCARERGFYTNYGNWFDPWGQGTLVTVSS VL: DIVMTQSPLSLTVTPGESASISCRSSQSLLHSYGYNSLDWYLQKPGQSPQFLIYLVSNRASGVPDRFSGSGSGTDFTLKISRVEAEDVGVYYCMQVLQTPYTFGQGTKLEIK :: 10.46
2) H4H1770P (antibody, human IgG4, V domains shown, Human IgG4 Fc (prefix H4H)) VH: QVQLVQSGAEVKKPGAAVKVSCKASGYTFTAYGISWVRQAPGQGLEWMGWISAYDGDTNNAQKFQGRVTMTTDTSSSTAYMELRSLGSDDTAVYYCARDRYSSSSGYFDYWGQGTLVTVSS VL: DIQMTQSPSSVSASVGDRVTITCRASQDISSWLAWSQQKPGKAPKALIYAASSLQSGVPSRFSGSGSGTDFTLTISSLQPEDFATYYCQQANSFPYTFGQGTKLEIK :: 11.49
